src = patent US20250101120A1

Biological target: T1, hFc-hFasL (fusion protein of human Fc fragment and human FasL extracellular region) (human, UniProt P48023 134-281)
T1 sequence: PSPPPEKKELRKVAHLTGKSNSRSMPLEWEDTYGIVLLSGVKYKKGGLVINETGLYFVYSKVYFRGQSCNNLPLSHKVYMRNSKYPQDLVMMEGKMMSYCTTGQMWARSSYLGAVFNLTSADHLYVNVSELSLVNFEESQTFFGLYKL
Experiment: cell-based or functional assay
measured-attribute: IC50(nM), FasL antigen-induced apoptosis of Jurkat cells (CellTiter-Glo ATP)
Could you give me the number in nM? Just the number is fine.

Reference set, count: 2
binder: FL-M08 (antibody, V domains shown, Chimeric full-length antibody, tested as human IgG4 / human kappa) VH: QIQLLQSGAELVRPGVSVKISCKGSGYTFTDYAMHWVKQSHAKSLEWIGVISTYQGDANYNQKFKGKATMTVDKSSSTAYMELARLTSEDSAIYYCARFPDWDYAMDYWGQGTSVTVSS VL: EIVLTQSPASLAVSLGQRATISCKASQSVDYDGDSYMNWYQQKPGQPPKLLIYAASNLESGIPARFSGSGSGTDFTLNIHPVEEEDAATYYCQHSRELPYTFGGGTKLEIK
reported-measurement: 0.035

binder: FL-M56 (antibody, V domains shown, Chimeric full-length antibody, tested as human IgG4 / human kappa) VH: EVQLQQSGPELVKPGASVKLSCKASGYTFTRFDISWVRQRPEQGLEWIGWIFPGDGSTQYNENFKGKATLTTDKSSGTAYMQLNRLTSEDSAVYFCARSLISTAMFDHWGQGTTLTVSS VL: DIVLTQSPASLAVSLGQRATISCRASKSVSTSDFSYIHWYQQKPGLPPKLLIFLASHLESGVPARFSGSGSGTDFTLNIHPVEEEDAATYYCQHSRELPRTFGGGTKLEIK
reported-measurement: 0.02

Attention now turns to another entry.
The measured IC50(nM), FasL antigen-induced apoptosis of Jurkat cells (CellTiter-Glo ATP) associated with FL-M05 (antibody, V domains shown, Chimeric full-length antibody, tested as human IgG4 / human kappa) VH: EVQLQQSGAELVRPGVSVKISCKGSGYTFTDYTMHWVKQSHAKSLEWIGVISTYQGDARYNQKFKGKATMTVDKSSSTAYMELARLTSEDSAIYYCARFPDWDYAMDYWGQGTSVTVSS VL: DIVLTQSPASLAVSLGQRATISCKASQSVDYDGDSYMNWYQQKPGQPPKLLIYAASNLESGIPARFSGSGSGTDFTLNIHPVEEEDAATYYCQHSRELPYTFGGGTKLEIK reads 0.109
